Test system: SNB-19
Assay: NCI tumour cell line growth inhibition, 48 h
Active and inactive are the calls of the source. Rule as the data show it: active = GI50 up to about 1.1 µM and inactive = higher.
Answer each item with its documented GI50.

# example entries with known answers
O=c1oc2c(Br)c(O)c(Br)cc2c2ccccc12 : 30.3 µM (inactive)
OC(C1CCCCCCCCCC1)C(O)C1CCCCCCCCCC1 (stereo unspecified) : > 100 µM (inactive)
CCCCCCCCCCCCOC1C(COCCN2CCCC2)OC2OC(C)(C)OC21 (stereo unspecified) : 2.94 µM (inactive)
CCN(CC)c1ccc(/N=C2/C=CC(=C(C#N)C#N)c3ccccc32)c(C)c1 : 3.78 µM (inactive)
CC1=NN(c2cccc(Cl)c2)C2(C1)SCC(=O)N2c1nc2ccccc2s1 (stereo unspecified) : 36 µM (inactive)

Batch request: GI50 per item, same order as input.
1. COc1ccc(N(CN2C(=O)CCC2OC)C(C)=O)cc1 (stereo unspecified)
2. COc1nc2ccc(CNc3ccc(C(=O)O)cc3)cc2nc1OC
3. COC(=O)Cc1c(C2=Nc3ccccc3C2(O)CC(=O)OC)[nH]c2ccccc12 (stereo unspecified)
4. COc1ccc(NC(=O)NS(=O)(=O)c2ccc(C)cc2)nn1
5. O=C1C=CC(=C(c2ccccc2)c2ccc(O)cc2)C=C1
6. O=C(Cc1nc2ccccc2[nH]c1=O)c1c[nH]c2ccccc12

Result:
1. > 100 µM (inactive)
2. > 10 µM (inactive)
3. 55.8 µM (inactive)
4. > 100 µM (inactive)
5. 13.8 µM (inactive)
6. 25.8 µM (inactive)

---

Tested on: SF-539
Assay: NCI tumour cell line growth inhibition, 48 h
Calls of active or inactive are those of the source. No stated cut-off is given here; in the data, active = GI50 up to about 1.1 µM and inactive = higher.
Answer each item with its documented GI50.

# example entries with known answers
Cc1ccc(S(=O)(=O)SCc2ccccc2)cc1 : 23.4 µM (inactive)
Nc1c(C(=O)c2ccc(Cl)cc2)[nH]c(NCc2ccccc2)c1C(=S)Nc1ccccc1 : 4.62 µM (inactive)
Cc1ccc(C)c(NC(=O)C(=O)C2C(=O)N(c3ccccc3)N=C2N)c1 (stereo not drawn) : > 100 µM (inactive)
Cc1ccc2c(=O)c3c(O)c4c(cc3n(C)c2c1)OC(C)(C)C=C4 : > 10 µM (inactive)
CC(C)c1cccc(C(C)C)c1NC(=O)C(=O)CC(=O)CC(c1ccccc1)c1c(O)oc2ccccc2c1=O (stereo not drawn) : > 100 µM (inactive)

Batch request: GI50 per item, same order as input.
1. Cc1nn(-c2ccccc2)c2c1C(c1cc3ccccc3nc1Cl)NC(=S)N2 (stereo not drawn)
2. C=C1C(=O)OC2C1CC(OC(C)=O)/C(C)=C/CCC1(C)OC21 (stereo not drawn)
3. COc1ccc(-c2c(CN3CCOCC3)sc3nc4ccccc4n23)cc1

Result:
1. 24.8 µM (inactive)
2. > 100 µM (inactive)
3. 16.8 µM (inactive)

---

System: MDA-N
Experiment: NCI tumour cell line growth inhibition, 48 h
Counter-ions that a name gives are not always drawn. Calls of active or inactive are those of the source. Cut-off read from the data, not from the text of the source: active = GI50 up to about 1.1 µM and inactive = higher.
measurement.kind: GI50

# example entries with known answers
O=C(CCC(=O)c1ccc(Cl)cc1)NO : > 100 µM (inactive)
Cc1cc(C)nc(NS(=O)(=O)c2ccc(NNc3c4ccccc4nc4c(C(=O)Nc5ccc(S(=O)(=O)N=C(N)N)cc5)cccc34)cc2)n1 : 49.5 µM (inactive)
O=C(c1cc2ccccc2[nH]1)N1C2CCC1CN(CCOC(c1ccc(F)cc1)c1ccc(F)cc1)CC2 (stereo not drawn) : > 100 µM (inactive)
O=C1/C(=C/c2ccc(O)cc2)CC/C1=C\c1ccc(O)cc1 : > 100 µM (inactive)
CCN(CC)CCNc1ccc(C)c2sc3ccccc3c(=O)c12 [LUCANTHONE HYDROCHLORIDE] : 1.95 µM (inactive)
OC(c1ccccc1)c1c(-c2ccccc2)[nH]c(-c2ccccc2)c1C(O)c1ccccc1 (stereo not drawn) : 2.59 µM (inactive)
O=C(O)CCCCC1CCSS1 (stereo not drawn) : > 100 µM (inactive)
COc1ccc(C(=O)/C(Br)=C/C(=O)O)cc1 : 20 µM (inactive)

Batch request: GI50 per item, same order as input.
1. COC(=O)C1(C(=O)OC)N=C(C)OC1/C=C/c1ccccc1 (stereo not drawn)
2. Cc1ccc([N+](=O)[O-])c2c(NCC(O)CO)ccnc12 (stereo not drawn)
3. O=[N+]([O-])c1ccc2nc3c(nc2c1)-c1c2ccccc2cc2cccc-3c12
4. Cc1cc(=O)[nH]c(-n2[nH]c(C)c(CCO)c2=O)n1
5. C=C(CN(C)C)C(=O)c1cc(C)ccc1C

Result:
["> 100 µM (inactive)", "42.3 µM (inactive)", "10.5 µM (inactive)", "> 100 µM (inactive)", "6.84 µM (inactive)"]

Batch request: GI50 per item, same order as input.
1. O=[N+]([O-])c1ccc(/N=N/c2c(O)ccc3cc(S(=O)(=O)O)cc(S(=O)(=O)O)c23)cc1
2. COc1ccc([C@]23CCC4(OCC(C)(C)CO4)[C@H]4CON(O[C@H](O[C@@H]5CCCCC5C(C)(C)c5ccccc5)C2)[C@@H]43)cc1OC (stereo partly drawn)
3. COc1cc(C(=O)/C=C/c2ccc(OCCSCCCCCCCCCCSCCOc3ccc(/C=C/C(=O)c4cc(OC)c(OC)c(OC)c4)cc3)cc2)cc(OC)c1OC
4. CC(C)=CCC[C@@H](C)c1c2ncc[nH]c-2c(C)c(=O)c1O
5. CN(C)c1c(C2OC(CO)C(O)C2O)c(=O)c1=O (stereo not drawn)
6. O=C1CSC(c2ccc([N+](=O)[O-])cc2)N1c1ccc(-c2ccc(-n3c(-c4ccccc4)nc4ccccc4c3=O)cc2)cc1 (stereo not drawn)
7. COC1OC2COC(C)(C)OC2C2OC(C)(C)OC12 (stereo not drawn)
8. O=[N+]([O-])C(Cl)C(Cl)C(Cl)=C(Cl)Cl (stereo not drawn)

Result:
["> 100 µM (inactive)", "28.8 µM (inactive)", "> 100 µM (inactive)", "37.8 µM (inactive)", "> 100 µM (inactive)", "75 µM (inactive)", "69.5 µM (inactive)", "19.1 µM (inactive)"]

Batch request: GI50 per item, same order as input.
1. CC(=O)N1CC[N+](C)(CCCCN2c3ccccc3Sc3cc(N=[N+]=[N-])ccc32)CC1
2. CC1=CC(=O)CC(C)(C)C1(O)/C=C/C(C)=C/C(=O)O (stereo not drawn)

Result:
1: > 100 µM (inactive); 2: > 100 µM (inactive)
